All figures here come from ChEMBL document CHEMBL3397023.

system: Aorta; assay: Vasorelaxant activity in Wistar rat endothelium-denuded aortic ring assessed as reduction of KCl-induced contraction; format: functional, tissue-based
pIC50: −log10 of the molar value.
assay readout: pIC50

compound	system name	assay readout	result
CCOc1cc(CC(=O)N[C@@H](CC(C)C)c2ccccc2N2CCCCC2)ccc1C(=O)OCc1ccc(C(C)O[N+](=O)[O-])cc1 (stereo not given in full)	Aorta	pIC50	5.30

[A] CCOc1cc(CC(=O)N[C@@H](CC(C)C)c2ccccc2N2CCCCC2)ccc1C(=O)OCc1cccc(CO[N+](=O)[O-])c1
[B] CC(O[N+](=O)[O-])c1ccc(COC(=O)[C@@H](Cc2ccccc2)NC(=O)[C@H]2CC[C@H](C(C)C)CC2)cc1 (stereo not given in full)
[C] CCOc1cc(CC(=O)N[C@@H](CC(C)C)c2ccccc2N2CCCCC2)ccc1C(=O)OCc1ccc(CO[N+](=O)[O-])cc1
[D] CC(C)[C@H]1CC[C@H](C(=O)N[C@H](Cc2ccccc2)C(=O)OCc2ccc(CO[N+](=O)[O-])cc2)CC1
Asked: Arrange these compounds by their pIC50, starting with the largest number. In your reply, arrange the labels in the requested order.
Given back: D, C, A, B
